System: A-549
Assay: Cell proliferation by MTT method, A-549
Assay type: cell-based
Conditions: Homo sapiens, A549, 24 h; A 549, incubation 1 day
# EC50 values compiled below

CCCCn1c(Sc2cc3c(cc2I)OCO3)nc(C(N)=O)c1N | > 100 µM

We now examine a further molecule.
Problem: So what's the measured EC50 for this one? NCCCCCn1c(Sc2cc3c(cc2I)OCO3)nc(C(N)=O)c1N
Result: > 100 µM
